assayed.target: human B1R (Homo sapiens)
Construct: expressed in transfected cells; host or cells: CHO K1 cells (Chinese hamster ovary), stably transfected
Sequence (P46663 1-353): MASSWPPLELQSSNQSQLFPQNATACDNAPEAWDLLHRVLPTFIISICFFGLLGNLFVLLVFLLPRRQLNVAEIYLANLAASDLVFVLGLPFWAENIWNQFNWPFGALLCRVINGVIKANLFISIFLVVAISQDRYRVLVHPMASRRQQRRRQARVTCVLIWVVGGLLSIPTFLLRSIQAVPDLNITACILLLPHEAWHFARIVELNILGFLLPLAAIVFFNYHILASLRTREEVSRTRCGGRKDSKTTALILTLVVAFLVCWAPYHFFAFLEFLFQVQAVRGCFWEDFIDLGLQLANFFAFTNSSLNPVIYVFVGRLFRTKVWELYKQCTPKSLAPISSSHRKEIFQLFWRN
measurement.protocol: FLIPR Ca2+ functional assay, B1R antagonism, human B1R in CHO K1 cells
Assay type: cell-based
condition.summary: test substance 10 μM; hB1R CHO K1 cells; agonist Lys-Des-Arg9 bradykinin at EC80; % of maximum achievable inhibition
Give measured inhibition at 10 µM for each item. Keep answers brief.
# number only, unit % dropped from output

Kindly indicate its recorded inhibition at 10 µM. Item: O=C(COCC1c2cccn2CCN1S(=O)(=O)c1ccccc1C(F)(F)F)N1CCC2(CC1)CCN(c1ccncc1)CC2 (stereo not shown) 99.9

Kindly indicate its recorded inhibition at 10 µM. Item: COc1cc(C)c(S(=O)(=O)N2CCn3cccc3C2COCC(=O)N2CCC(c3ccncc3)CC2)c(C)c1 (stereo not shown) 99.2

Kindly indicate its recorded inhibition at 10 µM. Item: O=C(CC1c2cccn2CCN1S(=O)(=O)c1ccc(Cl)c(Cl)c1)NC1CCc2cc(CN3CCCCC3)ccc2C1 (stereo not shown) 98.9

Kindly indicate its recorded inhibition at 10 µM. Item: Cc1ccc(S(=O)(=O)N2CCn3cccc3C2CC(=O)NC2CCCc3cc(CN4C5CCCC4CC5)ccc32)cc1 (stereo not shown) 99.9

Kindly indicate its recorded inhibition at 10 µM. Item: COc1cc(C)c(S(=O)(=O)N2CCn3cccc3C2COCC(=O)N2CCC(N3CC4CC3CN4C)CC2)c(C)c1 (stereo not shown) 99.6

Kindly indicate its recorded inhibition at 10 µM. Item: COc1ccc2cc(S(=O)(=O)N3CCn4cccc4C3CC(=O)NC3CCc4cc(CN5CCCCC5)ccc4C3)ccc2c1 (stereo not shown) 99.9

Kindly indicate its recorded inhibition at 10 µM. Item: O=C(CC1c2cccn2CCN1S(=O)(=O)c1cccc(C(F)(F)F)c1)NC1CCCc2cc(CN3CCCC3)ccc21 (stereo not shown) 99.8

Kindly indicate its recorded inhibition at 10 µM. Item: Cc1ccc(S(=O)(=O)N2CCn3cccc3C2CC(=O)NC2CCCc3cc(CN4C5CCCC4CC5)ccc32)cc1Cl (stereo not shown) 99.9

Kindly indicate its recorded inhibition at 10 µM. Item: Cc1ccc(S(=O)(=O)N2CCn3cccc3C2CC(=O)NC2CCc3cc(CNC(C)(C)C)ccc3C2)cc1 (stereo not shown) 99.6

Kindly indicate its recorded inhibition at 10 µM. Item: Cc1ccc(S(=O)(=O)N2CCn3cccc3C2CC(=O)NC2CCCc3cc(CN4CCCc5ccccc54)ccc32)cc1Cl (stereo not shown) 23.4

Kindly indicate its recorded inhibition at 10 µM. Item: O=C(CC1c2cccn2CCN1S(=O)(=O)c1cccc(Cl)c1)NC1CCc2cc(CN3CCCCC3)ccc2C1 (stereo not shown) 99.9

Kindly indicate its recorded inhibition at 10 µM. Item: COc1cc(C)c(S(=O)(=O)N2CCn3cccc3C2COCC(=O)N2CCC(Oc3ccncc3)C2)c(C)c1 (stereo not shown) 98.1

Kindly indicate its recorded inhibition at 10 µM. Item: Cc1ccc(S(=O)(=O)N2CCn3cccc3C2CC(=O)NC2CCc3cc(CNCc4ccccc4)ccc3C2)cc1Cl (stereo not shown) 99.5

Kindly indicate its recorded inhibition at 10 µM. Item: CNCc1ccc2c(c1)CCC(NC(=O)CC1c3cccn3CCN1S(=O)(=O)c1cccc(C(F)(F)F)c1)C2 (stereo not shown) 99.1

Kindly indicate its recorded inhibition at 10 µM. Item: Cc1ccc(S(=O)(=O)N2CCn3cccc3C2CC(=O)NC2CCCc3cc(CN(C)C(C)(C)C)ccc32)cc1Cl (stereo not shown) 99.8

Kindly indicate its recorded inhibition at 10 µM. Item: CNCc1ccc2c(c1)CCCC2NC(=O)CC1c2cccn2CCN1S(=O)(=O)c1ccc2cc(OC)ccc2c1 (stereo not shown) 99.8

Kindly indicate its recorded inhibition at 10 µM. Item: COc1ccc2cc(S(=O)(=O)N3CCn4cccc4C3CC(=O)NC3Cc4ccc(CN5CCCCC5)cc4C3)ccc2c1 (stereo not shown) 99.6

Kindly indicate its recorded inhibition at 10 µM. Item: COc1cc(C)c(S(=O)(=O)N2CCn3cccc3C2COCC(=O)N2CCC(OCCN3CCCC3)(c3cccnc3)CC2)c(C)c1 (stereo not shown) 99.9

Kindly indicate its recorded inhibition at 10 µM. Item: COc1cc(C)c(S(=O)(=O)N2CCn3cccc3C2CC(=O)N2CCC3(CCN(C4CC4)C3)C2)c(C)c1 (stereo not shown) 69.6

Kindly indicate its recorded inhibition at 10 µM. Item: COc1ccc2cc(S(=O)(=O)N3CCn4cccc4C3CC(=O)NC3CCc4cc(CN5CCN(C)CC5)ccc4C3)ccc2c1 (stereo not shown) 99.8

Kindly indicate its recorded inhibition at 10 µM. Item: Cc1ccc(S(=O)(=O)N2CCn3cccc3C2CC(=O)NC2CCc3cc(CN(C)C)ccc3C2)cc1 (stereo not shown) 100

Kindly indicate its recorded inhibition at 10 µM. Item: O=C(CC1c2cccn2CCN1S(=O)(=O)c1cccc(C(F)(F)F)c1)NC1CCc2cc(CNCc3ccccc3)ccc2C1 (stereo not shown) 99.3

Kindly indicate its recorded inhibition at 10 µM. Item: CN(Cc1ccc2c(c1)CCCC2NC(=O)CC1c2cccn2CCN1S(=O)(=O)c1cccc(C(F)(F)F)c1)C(C)(C)C (stereo not shown) 99.8

Kindly indicate its recorded inhibition at 10 µM. Item: Cc1ccc(S(=O)(=O)N2CCn3cccc3C2CC(=O)NC2CCc3cc(CN4CCOCC4)ccc3C2)cc1Cl (stereo not shown) 99.9

Kindly indicate its recorded inhibition at 10 µM. Item: CNCc1ccc2c(c1)CCCC2NC(=O)CC1c2cccn2CCN1S(=O)(=O)c1ccc(C)cc1 (stereo not shown) 99.4

Kindly indicate its recorded inhibition at 10 µM. Item: Cc1ccc(S(=O)(=O)N2CCn3cccc3C2CC(=O)NC2CCCc3cc(CNCc4ccccc4)ccc32)cc1 (stereo not shown) 97.4

Kindly indicate its recorded inhibition at 10 µM. Item: Cc1ccc(S(=O)(=O)N2CCn3cccc3C2CC(=O)N[C@@H]2CCCc3cc(CN4CCC(F)CC4)ccc32)cc1 (stereo partly shown) 99.3

Kindly indicate its recorded inhibition at 10 µM. Item: O=C(CC1c2cccn2CCN1S(=O)(=O)c1cccc(C(F)(F)F)c1)NC1CCCc2cc(CN3C4CCCC3CC4)ccc21 (stereo not shown) 99.8
